RUN_DESCRIPTION: Assay B: Microsomal clearance
Type: in vitro ADME, human
EXPERIMENTAL_CONDITIONS: compounds of the invention; pooled liver microsomes 1 mg/ml, 1 μM compound, 37° C., NADPH
VALUE_TYPE: human LM

// solved cases for human LM follow
>>> recorded_measurement("CN1C(=O)COc2ncn(Cc3nc(C[C@H](O)c4ccc(Cl)cc4)no3)c(=O)c21 [Example 1]")
"<23 % Qh"
>>> recorded_measurement("Cc1ccc([C@@H](O)Cc2noc(Cn3cnc4c(c3=O)N(C)C(=O)CO4)n2)cc1 [Example 7]")
"<23 % Qh"

Recorded human LM for CN1C(=O)COc2ncn(Cc3nc(C[C@H](O)c4cc5cc(F)ccc5o4)no3)c(=O)c21 [Example 4] , please?
<23 % Qh

Can you handle CN1C(=O)COc2ncn(Cc3nc(C[C@H](O)c4cc5ccc(F)cc5s4)no3)c(=O)c21 [Example 2] next?
<23 % Qh

Can you handle CN1C(=O)COc2ncn(Cc3nc(C[C@H](O)c4cc5ccccc5s4)no3)c(=O)c21 [Example 3] next?
<23 % Qh

Can you handle CN1C(=O)COc2ncn(Cc3nc(C[C@H](O)c4cc5cc(Cl)ccc5o4)no3)c(=O)c21 [Example 6] next?
56 % Qh

Can you handle CN1C(=O)COc2ncn(Cc3nc(C[C@H](O)c4ccc(I)cc4)no3)c(=O)c21 [Example 5] next?
29 % Qh
